Tested on: MONO-MAC-6;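 note: cell viability assay measuring growth inhibition of human MONO-MAC-6 cells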
measurementNotes: cells
Format: functional, cell-based
condition: Homo sapiens
Description: SANGER: Inhibition of human MONO-MAC-6 cell growth in a cell viability assay.
Kindly state IC50 for each of the entries shown.
Dear colleague, please return just the value in µM, with no unit written.

Ask: State IC50 (MONO-MAC-6) of CCC(=O)N1CCN(c2ccc(-n3c(=O)ccc4cnc5ccc(-c6cnc7ccccc7c6)cc5c43)cc2C(F)(F)F)CC1 [TORIN1] .
Reply: 0.0721

Ask: State IC50 (MONO-MAC-6) of Cn1cncc1[C@@](N)(c1ccc(Cl)cc1)c1ccc2c(c1)c(-c1cccc(Cl)c1)cc(=O)n2C [TIPIFARNIB] .
Reply: 3.35

----------
Tested on: NCI-H661;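 note: cell viability assay read-out, IC50 being the concentration that inhibits growth of the cells by half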
measurementNotes: cells
Assay type: functional, cell-based, Homo sapiens
condition: Homo sapiens, NCI-H661
Description: SANGER: Inhibition of human NCI-H661 cell growth in a cell viability assay.
quantity: IC50 (µM)
Dear colleague, please return just the value in µM, with no unit written.

Ask: State IC50 (NCI-H661) of `CCC1=C[C@@H]2CN(C1)Cc1c([nH]c3ccccc13)[C@@](C(=O)OC)(c1cc3c(cc1OC)N(C)[C@H]1[C@@](O)(C(=O)OC)[C@H](OC(C)=O)[C@]4(CC)C=CCN5CC[C@]31[C@@H]54)C2` .
Reply: 0.0204

Ask: State IC50 (NCI-H661) of `COc1ccc(-c2ccc3c(N4CCOC[C@@H]4C)nc(N4CCOC[C@@H]4C)nc3n2)cc1CO` .
Reply: 1.45

Ask: State IC50 (NCI-H661) of `COC(=O)CNC(=O)C(=O)OC` .
Reply: 2280

----------
Test system: EFO-21;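 note: growth inhibition of EFO-21 cells measured with a viability assay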
measurementNotes: cells
Format: functional, cell-based, Homo sapiens
condition: Homo sapiens, EFO-21
Description: SANGER: Inhibition of human EFO-21 cell growth in a cell viability assay.
pIC50: −log10 of the molar value.
quantity: pIC50

Ask: Tell us which pIC50 value is on record for CCC1=C[C@@H]2CN(C1)Cc1c([nH]c3ccccc13)[C@@](C(=O)OC)(c1cc3c(cc1OC)N(C)[C@H]1[C@@](O)(C(=O)OC)[C@H](OC(C)=O)[C@]4(CC)C=CCN5CC[C@]31[C@@H]54)C2 [VINORELBINE]
Reply: 7.66

Ask: Tell us which pIC50 value is on record for Cc1ccc(Nc2nccc(N(C)c3ccc4c(C)n(C)nc4c3)n2)cc1S(N)(=O)=O [PAZOPANIB]
Reply: < 5.10

Ask: Tell us which pIC50 value is on record for C[C@]1(O)C[C@@H](c2nc(-c3ccc4ccc(-c5ccccc5)nc4c3)c3c(N)nccn32)C1 [LINSITINIB]
Reply: < 5.59

Ask: Tell us which pIC50 value is on record for `COC(=O)CNC(=O)C(=O)OC`
Reply: 3.59

Ask: Tell us which pIC50 value is on record for O=C(NOCC1CC1)c1ccc(F)c(F)c1Nc1ccc(I)cc1Cl [CI-1040]
Reply: < 5.00

Ask: Tell us which pIC50 value is on record for CN(c1ncccc1CNc1nc(Nc2ccc3c(c2)CC(=O)N3)ncc1C(F)(F)F)S(C)(=O)=O [PF-00562271]
Reply: < 5.59

----------
Tested on: SF-268;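 note: growth inhibition of SF-268 cells determined with a cell viability assay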
measurementNotes: cells
Assay type: functional, cell-based, Homo sapiens
condition: sf-268
Description: SANGER: Inhibition of human SF268 cell growth in a cell viability assay.
pIC50: −log10 of the molar value.
quantity: pIC50

Ask: Tell us which pIC50 value is on record for `Cc1cc([C@@H](C)Nc2ccccc2C(=O)O)c2nc(N3CCOCC3)cc(=O)n2c1`
Reply: < 5.29

----------
Test system: NCI-H69;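 note: growth inhibition of the cell line, read out with a cell viability assay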
measurementNotes: cells
Type: functional, cell-based
condition: Homo sapiens
Description: SANGER: Inhibition of human NCI-H69 cell growth in a cell viability assay.
pIC50: −log10 of the molar value.
quantity: pIC50

Ask: Tell us which pIC50 value is on record for `CO[C@H]1C[C@@H]2CC[C@@H](C)[C@@](O)(O2)C(=O)C(=O)N2CCCC[C@H]2C(=O)O[C@H]([C@H](C)C[C@@H]2CC[C@@H](O)[C@H](OC)C2)CC(=O)[C@H](C)/C=C(\C)[C@@H](O)[C@@H](OC)C(=O)[C@H](C)C[C@H](C)/C=C/C=C/C=C/1C`
Reply: < 7.00

Ask: Tell us which pIC50 value is on record for `CC(=O)O[C@@]12CO[C@@H]1C[C@H](O)[C@@]1(C)C(=O)[C@H](O)C3=C(C)[C@@H](OC(=O)[C@H](O)[C@@H](NC(=O)OC(C)(C)C)c4ccccc4)C[C@@](O)([C@@H](OC(=O)c4ccccc4)[C@H]21)C3(C)C`
Reply: < 8.00

Ask: Tell us which pIC50 value is on record for `O=C(NOCC1CC1)c1ccc(F)c(F)c1Nc1ccc(I)cc1Cl`
Reply: < 5.00

Ask: Tell us which pIC50 value is on record for `CS(=O)(=O)CCNCc1ccc(-c2ccc3ncnc(Nc4ccc(OCc5cccc(F)c5)c(Cl)c4)c3c2)o1`
Reply: < 5.70

Ask: Tell us which pIC50 value is on record for `CNC(=O)c1cc(Oc2ccc(NC(=O)Nc3ccc(Cl)c(C(F)(F)F)c3)cc2)ccn1`
Reply: < 5.40

Ask: Tell us which pIC50 value is on record for `CCC(=O)N1CCN(c2ccc(-n3c(=O)ccc4cnc5ccc(-c6cnc7ccccc7c6)cc5c43)cc2C(F)(F)F)CC1`
Reply: 6.30

Ask: Tell us which pIC50 value is on record for `Cn1cncc1[C@@](N)(c1ccc(Cl)cc1)c1ccc2c(c1)c(-c1cccc(Cl)c1)cc(=O)n2C`
Reply: < 4.80

Ask: Tell us which pIC50 value is on record for `CCOc1nc(NC(=O)Cc2cc(OC)ccc2OC)cc(N)c1C#N`
Reply: < 5.00

----------
System: CWR22R
measurementNotes: cells
Type: functional, cell-based, Homo sapiens
condition: Homo sapiens, 22Rv1
Description: SANGER: Inhibition of human 22RV1 cell growth in a cell viability assay.
pIC50: −log10 of the molar value.
Kindly state pIC50 for each of the entries shown.

Ask: Tell us which pIC50 value is on record for CN(Cc1cnc2nc(N)nc(N)c2n1)c1ccc(C(=O)N[C@@H](CCC(=O)O)C(=O)O)cc1 [METHOTREXATE]
Reply: < 6.70

Ask: Tell us which pIC50 value is on record for `O=C1N=C(NCc2cccs2)S/C1=C\c1ccc2ncccc2c1`
Reply: < 5.30

Ask: Tell us which pIC50 value is on record for CCC1=C[C@@H]2CN(C1)Cc1c([nH]c3ccccc13)[C@@](C(=O)OC)(c1cc3c(cc1OC)N(C)[C@H]1[C@@](O)(C(=O)OC)[C@H](OC(C)=O)[C@]4(CC)C=CCN5CC[C@]31[C@@H]54)C2 [VINORELBINE]
Reply: 8.06

Ask: Tell us which pIC50 value is on record for Cc1cnc(-c2cnc(NCCNc3ccc(C#N)cn3)nc2-c2ccc(Cl)cc2Cl)[nH]1 [LADUVIGLUSIB]
Reply: < 5.59

Ask: Tell us which pIC50 value is on record for C[C@]1(O)C[C@@H](c2nc(-c3ccc4ccc(-c5ccccc5)nc4c3)c3c(N)nccn32)C1 [LINSITINIB]
Reply: < 5.59

Ask: Tell us which pIC50 value is on record for C=CCNC1=C2C[C@@H](C)C[C@H](OC)[C@H](O)[C@@H](C)/C=C(\C)[C@H](OC(N)=O)[C@@H](OC)/C=C\C=C(/C)C(=O)NC(=CC1=O)C2=O [TANESPIMYCIN]
Reply: < 6.00

Ask: Tell us which pIC50 value is on record for CN(C)C/C=C/C(=O)Nc1cc2c(Nc3ccc(F)c(Cl)c3)ncnc2cc1O[C@H]1CCOC1 [AFATINIB]
Reply: < 6.30

----------
Kindly state IC50 for each of the entries shown.
Test system: HCT-15;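 note: cell viability readout, IC50 reflecting suppression of HCT-15 cell growth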
measurementNotes: cells
Format: functional, cell-based, Homo sapiens
condition: Homo sapiens, HCT-15
Description: SANGER: Inhibition of human HCT-15 cell growth in a cell viability assay.

Ask: Tell us which IC50 value is on record for `CC(=O)O[C@@H]1[C@@H](OC(C)=O)[C@@H](O)[C@H](Oc2c(-c3ccc(O)cc3)oc3cc(O)cc(O)c3c2=O)O[C@H]1C`
Reply: > 10 µM

Ask: Tell us which IC50 value is on record for `Cn1cc(C2=C(c3ccc(Cl)cc3Cl)C(=O)NC2=O)c2ccccc21`
Reply: > 10 µM

Ask: Tell us which IC50 value is on record for `Cc1ccc(Nc2nccc(N(C)c3ccc4c(C)n(C)nc4c3)n2)cc1S(N)(=O)=O`
Reply: > 8 µM

Ask: Tell us which IC50 value is on record for `O=c1cc(-c2cccc3c2Sc2ccccc2S3)oc(N2CCOCC2)c1`
Reply: > 10 µM

----------
Kindly state pIC50 for each of the entries shown.
Tested on: L-540;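 note: growth inhibition of the human L-540 cell line, read out with a viability assay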
measurementNotes: cells
Assay type: functional, cell-based
condition: Homo sapiens
Description: SANGER: Inhibition of human L-540 cell growth in a cell viability assay.
// pIC50 here means minus log10 of the molar concentration (mol/L)

Ask: Tell us which pIC50 value is on record for COc1cc([C@@H]2c3cc4c(cc3[C@@H](O[C@@H]3O[C@@H]5CO[C@@H](C)O[C@H]5[C@H](O)[C@H]3O)[C@H]3COC(=O)[C@H]23)OCO4)cc(OC)c1O [ETOPOSIDE]
Reply: 5.98

Ask: Tell us which pIC50 value is on record for `C=CCc1cccc(/C=N/NC(=O)CN2CCN(Cc3ccccc3)CC2)c1O`
Reply: 5.66

Ask: Tell us which pIC50 value is on record for `CNC(=O)c1cc(Oc2ccc(NC(=O)Nc3ccc(Cl)c(C(F)(F)F)c3)cc2)ccn1`
Reply: 5.56
